Biological target: T1, human PD-1 dimer (human PD-1-mFc or human PD-1-hFc) (human, UniProt Q15116 25-170)
T1 construct: also called hPD-1-mFc; hPD1-hFc
T1 sequence (Q15116 25-170 C93S): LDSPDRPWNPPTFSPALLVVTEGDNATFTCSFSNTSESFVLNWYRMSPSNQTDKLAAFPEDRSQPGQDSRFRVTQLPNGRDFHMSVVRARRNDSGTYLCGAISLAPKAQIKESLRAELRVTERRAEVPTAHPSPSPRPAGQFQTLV
Assay: SPR, mAb captured, 37C;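 also: Real-time Biacore biosensor, PD-1 dimer flowed over anti-PD-1 antibody surface, rate constants fitted to a 1:1 model, KD derived as kd/ka and t½ as ln2/(60·kd)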
Assignment: determine reported koff for the given binders.
Answers are plain numbers, in s⁻¹.

As a guide, the following entries are already answered.
# binder, koff, s⁻¹
data = [
    ("H2aM7796N (antibody, mouse IgG2a, V domains shown, Human variable regions, mouse IgG2a Fc; also called H2M7796N) VH: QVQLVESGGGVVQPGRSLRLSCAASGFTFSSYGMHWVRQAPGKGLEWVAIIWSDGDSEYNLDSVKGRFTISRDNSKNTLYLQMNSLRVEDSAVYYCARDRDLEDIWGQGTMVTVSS VL: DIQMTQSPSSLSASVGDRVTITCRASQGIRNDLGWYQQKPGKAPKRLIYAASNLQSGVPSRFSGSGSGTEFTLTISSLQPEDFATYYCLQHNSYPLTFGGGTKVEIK", 0.000434),
    ("H2aM7795N (antibody, mouse IgG2a, V domains shown, Human variable regions, mouse IgG2a Fc; also called H2M7795N) VH: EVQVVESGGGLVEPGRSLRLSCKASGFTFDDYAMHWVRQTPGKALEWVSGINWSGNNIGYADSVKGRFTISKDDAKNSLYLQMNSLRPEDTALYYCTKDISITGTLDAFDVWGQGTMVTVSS VL: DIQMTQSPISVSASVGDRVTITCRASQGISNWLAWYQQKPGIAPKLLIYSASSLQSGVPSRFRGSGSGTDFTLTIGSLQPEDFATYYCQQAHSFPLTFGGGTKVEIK", "6.13e-05"),
    ("H4H7795N2 (antibody, human IgG4 S228P, kappa, V domains shown) VH: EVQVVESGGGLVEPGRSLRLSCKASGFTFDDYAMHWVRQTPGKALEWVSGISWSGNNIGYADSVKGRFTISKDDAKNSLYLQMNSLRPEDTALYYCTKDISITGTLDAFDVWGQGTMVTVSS VL: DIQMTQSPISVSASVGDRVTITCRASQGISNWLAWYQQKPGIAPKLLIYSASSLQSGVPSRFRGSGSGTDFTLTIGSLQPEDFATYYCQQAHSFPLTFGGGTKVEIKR", 0.000264),
]

Moving on to the next binder.
Enquiry: // returns reported koff for input H4H7798N (antibody, human IgG4 S228P, kappa, V domains shown) VH: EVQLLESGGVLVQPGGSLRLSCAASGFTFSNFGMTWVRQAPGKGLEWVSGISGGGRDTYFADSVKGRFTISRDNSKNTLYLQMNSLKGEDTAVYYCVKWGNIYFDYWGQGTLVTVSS VL: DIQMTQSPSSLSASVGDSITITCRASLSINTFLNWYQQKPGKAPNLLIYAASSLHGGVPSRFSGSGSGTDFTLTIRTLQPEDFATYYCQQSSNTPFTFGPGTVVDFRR
Return: 0.000115
